tested on: HIV-1 integrase mutant virus Y143R; assay: Single cycle infectivity assay in HeLa P4-2 cells, integrase mutant Y143R virus; type: cell-based; settings: fold shift in IC50 versus wild type IIIB
readout label: Y143R (shift) (fold)
Response body: numeric value in fold, unit text excluded.

Take a look at these entries with their results.
CCC1C2CCC(NC(=O)C(=O)N(C)C)(CO2)c2nc(C(=O)NCc3ccc(F)cc3)c(O)c(=O)n21 (single isomer, unassigned) [Example 26C]	2
CN(C)C(=O)C(=O)N(C)C12CCC(C)(Cn3c1nc(C(=O)NCc1ccc(F)cc1)c(O)c3=O)OC2 (single isomer, unassigned) [Example 21B]	3
CCN(C(=O)C(=O)N(C)C)C12CCC(Cn3c1nc(C(=O)NCc1ccc(F)c(C)c1)c(O)c3=O)OC2 (single isomer, unassigned) [Example 18B]	2
CCC1C2CCC(N(C)C(=O)C(=O)N(C)C)(CO2)c2nc(C(=O)NCc3ccc(F)cc3)c(O)c(=O)n21 (single isomer, unassigned) [Example 25D]	3
CC1C2CCC(N(C)C(=O)C(=O)N(C)C)(CO2)c2nc(C(=O)NCc3ccc(F)cc3)c(O)c(=O)n21 (single isomer, unassigned) [Example 27D]	1

Please examine the following record next.
In plain terms, CN(C)C(=O)C(=O)N(C)C12CCC(CC1)n1c2nc(C(=O)NCc2ccc(F)cc2)c(O)c1=O [Example 30] has a documented Y143R (shift) of 3

----------
tested on: HIV-1 wild type IIIB; assay: Single cycle infectivity assay in HeLa P4-2 cells, wild type virus; assay type: cell-based; details: Human immunodeficiency virus 1, IIIB, HeLaP4-2, wild type IIIB
readout label: IC50 (µM)
Respond with the bare value in µM.

Field IC50 (entry CN1CCN(C(=O)C(=O)N(C)C23CCC(CC2)Cn2c3nc(C(=O)NCc3ccc(F)cc3)c(O)c2=O)CC1 [Example 4] ) reads 0.033

----------
biological target: HIV-1 integrase (Human immunodeficiency virus type 1 group M subtype B); construct: strand transfer activity of HIV-1 integrase; test: HIV integrase assay: strand transfer catalyzed by recombinant integrase; settings: strand transfer activity
Collected pIC50 values appear next to each entry.
In plain terms, pIC50 is the concentration in mol/L turned into minus its base-10 logarithm.

Here are 3 molecules together with their reported answers.
CN(C)C(=O)C(=O)NC12CCC(CC1)Cn1c2nc(C(=O)NCc2ccc(F)cc2)c(O)c1=O [Example 5]	7.48
CN(C)C(=O)C(=O)N(C)C12CCC(Cn3c1nc(C(=O)NCc1ccc(F)cc1)c(O)c3=O)OC2 (single isomer, unassigned) [Example 10A]	8.30
CN1CCN(C(=O)C(=O)N(C)C23CCC(CC2)Cn2c3nc(C(=O)NCc3ccc(F)cc3)c(O)c2=O)CC1 [Example 4]	7.85

Could you now consider this next molecule?
Assay HIV-1 integrase (Human immunodeficiency virus type 1 group M subtype B), sample O=C(NC12CCC(CC1)Cn1c2nc(C(=O)NCc2ccc(F)cc2)c(O)c1=O)C(=O)N1CCOCC1 [Example 6] , pIC50 read: 7.43

----------
target: HIV-1 integrase (Human immunodeficiency virus type 1 group M subtype B); construct: strand transfer activity of HIV-1 integrase; test: HIV integrase assay: strand transfer catalyzed by recombinant integrase; conditions: strand transfer activity
Threshold-based label: IC50 under 20 nM gives T, IC50 not under 20 nM gives F.

Solved cases below.
CN(C(=O)C(=O)N1CCOCC1)C12CCC(CC1)Cn1c2nc(C(=O)NCc2ccc(F)cc2)c(O)c1=O	F
CCN(C(=O)C(=O)N(C)C)C12CCC(Cn3c1nc(C(=O)NCc1ccc(F)cc1)c(O)c3=O)OC2 (single isomer, unassigned) [Example 12B]	T
CN(C)C(=O)C(=O)N(C)C12CCC(CC1)Cn1c2nc(C(=O)NCc2ccc(F)cc2)c(O)c1=O	T
CCN(C(=O)C(=O)N(C)C)C12CCC(Cn3c1nc(C(=O)NCc1ccc(F)cc1)c(O)c3=O)OC2 (single isomer, unassigned) [Example 12A]	T

Query string: Strictly below 20 nM: is that where IC50 of "Cc1cc(CNC(=O)c2nc3n(c(=O)c2O)CC2CCC3(N(C)C(=O)C(=O)N(C)C)CC2)ccc1F" sits?
Result string: T

Query string: hey, is IC50 for Cc1cc(CNC(=O)c2nc3n(c(=O)c2O)CC2CCC3(N(C)C(=O)C(=O)N(C)C)CO2)ccc1F (single isomer, unassigned) [Example 11A] lower than 20 nM or not?
Result string: F

----------
System: HIV-1 wild type IIIB
Test: Single cycle infectivity assay in HeLa P4-2 cells, wild type virus
Format: cell-based
Conditions: Human immunodeficiency virus 1, IIIB, HeLaP4-2, wild type IIIB
Method: An assay for measuring the inhibition of acute HIV-1 infection with HeLa P4-2 cells in a single cycle infectivity assay was conducted using methods described in Joyce et al., J. Biol. Chem. 2002, 277: 45811, Hazuda et al., Science 2000, 287: 646, and Kimpton et al, J. Virol. 1992, 66: 2232. […]
# Lookup of reported pIC50 keyed by entry
Value format note: pIC50 is -log10 of concentration (mol/L); just state the number.

// known answers, use as guide
CC1C2CCC(N(C)C(=O)C(=O)N(C)C)(CC2)c2nc(C(=O)NCc3ccc(F)cc3)c(O)c(=O)n21 (single isomer, unassigned) [Example 13A]	8.15
COC12CCC(N(C)C(=O)C(=O)N(C)C)(CC1)c1nc(C(=O)NCc3ccc(F)c(C)c3)c(O)c(=O)n1C2 [Example 14]	7.92

Record summary for CN(C)C(=O)C(=O)N(C)C12CCC(O)(CC1)Cn1c2nc(C(=O)NCc2ccc(F)cc2)c(O)c1=O [Example 17] : reported pIC50 = 7.34

----------
system: HIV-1 wild type IIIB; experiment: Single cycle infectivity assay in HeLa P4-2 cells, wild type virus; assay type: cell-based; conditions: Human immunodeficiency virus 1, IIIB, HeLaP4-2, wild type IIIB
readout label: IC50 (nM)
Write the number in nM without appending the unit.

Consider the reported IC50 for these molecules:
CN(C)C(=O)C(=O)N(C)C12CCC(CC1)n1c2nc(C(=O)NCc2ccc(F)cc2)c(O)c1=O	17
CN(C)C(=O)C(=O)N(C)C12CCC(Cn3c1nc(C(=O)NCc1ccc(F)cc1)c(O)c3=O)C2 (stereo not drawn)	13

Now look at this entry.
Recorded IC50 (molecule "COC12CCC(N(C)C(=O)C(=O)N(C)C)(CC1)c1nc(C(=O)NCc3ccc(F)cc3)c(O)c(=O)n1C2" ): 23
